- Test system: Mus musculus
- ASSAY: Antipsychotic activity in ip dosed albino lyka mouse assessed as reversal of apomorphine-induced mesh climbing response administered 10 mins prior to apomorphine challenge after 10 to 30 mins
- Format: functional
Calls of active or inactive are those of the source. The calls are words filed in the database; no cut-off is given here.
PARAMETER MEASURED: ED50

- MOLECULE: "CC(=O)c1ccc(OCCCN2CCN(C(=O)c3ccc(Cl)cc3)CC2)cc1"
  TGT: "Mus musculus"
  REPORTED RESULT: "inactive"
- MOLECULE: "CC(=O)c1ccc(OCCCN2CCN(C(=O)c3ccccc3Cl)CC2)cc1"
  TGT: "Mus musculus"
  REPORTED RESULT: "inactive"
- MOLECULE: "CC(=O)c1ccccc1OCCCN1CCN(C(=O)c2ccccc2Cl)CC1"
  TGT: "Mus musculus"
  REPORTED RESULT: "inactive"
- MOLECULE: "CC(=O)c1ccccc1OCCCN1CCN(C(=O)c2ccc(Cl)cc2)CC1"
  TGT: "Mus musculus"
  REPORTED RESULT: "inactive"
- MOLECULE: "Clc1ccccc1CN1CCN(Cc2ccccc2Cl)CC1"
  TGT: "Mus musculus"
  REPORTED RESULT: "7.2 mg/kg"
- MOLECULE: "CC(=O)c1ccc(OCCCN2CCN(Cc3ccccc3Cl)CC2)cc1"
  TGT: "Mus musculus"
  REPORTED RESULT: "23 mg/kg"
- MOLECULE: "CC(=O)c1ccccc1OCCCN1CCN(Cc2ccc(Cl)cc2)CC1"
  TGT: "Mus musculus"
  REPORTED RESULT: "10 mg/kg"
- MOLECULE: "Clc1ccc(CN2CCN(Cc3ccc(Cl)cc3)CC2)cc1"
  TGT: "Mus musculus"
  REPORTED RESULT: "10.5 mg/kg"
- MOLECULE: "CC(=O)c1ccc(OCCCN2CCN(Cc3ccc(Cl)cc3)CC2)cc1"
  TGT: "Mus musculus"
  REPORTED RESULT: "50 mg/kg"
- MOLECULE: "CC(=O)c1ccccc1OCCCN1CCN(Cc2ccccc2Cl)CC1"
  TGT: "Mus musculus"
  REPORTED RESULT: "10.5 mg/kg"

These measurements were taken from ChEMBL document CHEMBL1165883.
